The origin of these recorded values is patent US20130129739A1.

Biological target: T1, extracellular domain of human PRLR (monomeric, soluble) (human, UniProt P16471 25-234)
T1 construct: also called ECD-PRLR; ECD of PRLR
T1 sequence: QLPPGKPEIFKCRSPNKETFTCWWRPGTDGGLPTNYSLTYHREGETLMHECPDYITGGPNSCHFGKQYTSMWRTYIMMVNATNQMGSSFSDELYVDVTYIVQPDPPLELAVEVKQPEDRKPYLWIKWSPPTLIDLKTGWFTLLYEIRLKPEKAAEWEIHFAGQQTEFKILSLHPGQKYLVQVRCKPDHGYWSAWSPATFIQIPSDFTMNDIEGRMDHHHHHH
Experiment: ELISA: plate coated with human PRLR extracellular domain, Fab-containing E. coli supernatant, anti-flag-HRP, Amplex Red
Protocol: 96 well microtiter plates were coated with 1 μg per milliliter of human PRLR. Plates were incubated over night at 4° C. After blocking with PBS buffer containing 3% bovine serum albumin, normalized E. coli-derived supernatants containing the Fab variants were added. Detection of formed complexes occurred via the addition of an anti-flag antibody (Sigma, A8592) labeled with horseradish peroxidase.
VALUE_KIND: binding result

BINDER	OBSERVED_RESULT
005-C04-42-1 (Fab, V domains shown, Maturated 005-C04 variant; Fab in E. coli supernatant, flag-detected) VH: EVQLLESGGGLVQPGGSLRLSCAASGFTFSSYWNHWVRQAPGKGLEWVSDISRLSSYTNYADSVKGRFTISRDNSKNTLYLQMNSLRAEDTAVYYCARGLDARRMDYWGQGTLVTVTS VL: QSVLTQPPSASGTPGQRVTISCTGSSSNIGYGYVVHWYQQLPGTAPKLLIYRNNQRQSGVPDRFSGSKSGTSASLAISGLRSEDEADYYCAAWDDSLNGWLFGGGTKLTVLG	binds
005-C04-L2-1-4-5 (Fab, V domains shown, Maturated 005-C04 variant; Fab in E. coli supernatant, flag-detected) VH: EVQLLESGGGLVQPGGSLRLSCAASGFTFSSYWWHWVRQAPGKGLEWVSDISRASSYTNYADSVKGRFTISRDNSKNTLYLQMNSLRAEDTAVYYCARGLDARRMDYWGQGTLVTVTS VL: QSVLTQPPSASGTPGQRVTISCTGSSSNIGYGYVVHWYQQLPGTAPKLLIYRNNWRPSGVPDRFSGSKSGTSASLAISGLRSEDEADYYCAAWDDSLNGWLFGGGTKLTVLG	binds
005-C04-37-7 (Fab, V domains shown, Maturated 005-C04 variant; Fab in E. coli supernatant, flag-detected) VH: EVQLLESGGGLVQPGGSLRLSCAASGFTFSSYWWHWVRQAPGKGLEWVSDISSLSSYTGYADSVKGRFTISRDNSKNTLYLQMNSLRAEDTAVYYCARGLDARRMDYWGQGTLVTVTS VL: QSVLTQPPSASGTPGQRVTISCTGSSSNIGYGYVVHWYQQLPGTAPKLLIYRNNWRPSGVPDRFSGSKSGTSASLAISGLRSEDEADYYCAAWDDSLNGWLFGGGTKLTVLG	binds
005-C04-51-29-0 (Fab, V domains shown, Maturated 005-C04 variant; Fab in E. coli supernatant, flag-detected) VH: EVQLLESGGGLVQPGGSLRLSCAASGFTFSSYWMHWVRQAPGKGLEWVSDIASASSYTNYADSVKGRFTISRDNSKNTLYLQMNSLRAEDTAVYYCARGLDARRMDYWGQGTLVTVTS VL: QSVLTQPPSASGTPGQRVTISCTGSSSNIGAGYVVHWYQQLPGTAPKLLIYRNNQRPSGVPDRFSGSKSGTSASLAISGLRSEDEADYYCAAWDDSLNGWLFGGGTKLTVLG	binds
005-C04-45-1 (Fab, V domains shown, Maturated 005-C04 variant; Fab in E. coli supernatant, flag-detected) VH: EVQLLESGGGLVQPGGSLRLSCAASGFTFSSYWNHWVRQAPGKGLEWVSDISRASSYTNYADSVKGRFTISRDNSKNTLYLQMNSLRAEDTAVYYCARGLDARRMDYWGQGTLVTVTS VL: QSVLTQPPSASGTPGQRVTISCTGSSSNIGYGYVVHWYQQLPGTAPKLLIYRNNVRPSGVPDRFSGSKSGTSASLAISGLRSEDEADYYCAAWDDSLNGWLFGGGTKLTVLG	binds
005-C04-29-17-0 (Fab, V domains shown, Maturated 005-C04 variant; Fab in E. coli supernatant, flag-detected) VH: EVQLLESGGGLVQPGGSLRLSCAASGFTFSSYWMHWVRQAPGKGLEWVSDISSASSYTNYADSVKGRFTISRDNSKNTLYLQMNSLRAEDTAVYYCARGLDARRMDYWGQGTLVTVTS VL: QSVLTQPPSASGTPGQRVTISCTGSSSNIGAGYVVHWYQQLPGTAPKLLIYRNNQRPSGVPDRFSGSKSGTSASLAISGLRSEDEADYYCAAWDDSLSGWLFGGGTKLTVLG	binds
